Cited source for all entries: the nanobody polyreactivity screen of Harvey et al. (2022)

test.details: yeast display, Sf9 membrane polyspecificity reagent, FACS + sequencing; frameworks hold sequencing errors
observable: polyreactivity (PSR sort gate)

# annotated cases, reported polyreactivity (PSR sort gate) shown
[
  {
    "macromolecule.sequence": "QVQLVESGGGLVQAGGSLRLSCAASGRIFPAYAMGWYRQAPWKERELVASIRRGGITYADSVKGRFTISRDNAKNTVYLQMNSLKPEDSAVYYCNADYRGWGYHMYYWGQGTQVTVSS",
    "polyreactivity (PSR sort gate)": "low polyreactivity"
  },
  {
    "macromolecule.sequence": "QVQLVESGGGLVQAGGSLRLSCAASGRTFRYYAMGWYRQAPGKERELVAAITSGGSTNYADSVKGRFTISRDNAKNTVYLQMNSLKPEDTAVYYCAAYWRSRNRFFWGQGTQVTVSS",
    "polyreactivity (PSR sort gate)": "high polyreactivity"
  },
  {
    "macromolecule.sequence": "QVQLVESGGGLVQAGGSLRLSCAASGSTFYPYAMGWYRQAPGKERELVASITTDDGSTYYADSVKGRFTISRDNAKNTVYLQMNSLKPEDTAVYYCAARFRGFAVDWYPFRQGDYWGQGTQVTVSS",
    "polyreactivity (PSR sort gate)": "low polyreactivity"
  },
  {
    "macromolecule.sequence": "QVQLVESGGGLVQAGGSLRLSCAASGSIFYWNAMGWYRQAPGKERELVAAIDYSDGSTYYADSVKGRFTISRDNAKNTVYLQMNSLKPEDTAVYYCAAEWYYDLYDYWGQGTQVTVSS",
    "polyreactivity (PSR sort gate)": "high polyreactivity"
  }
]

Looking up QVQLVESGGGLVQAGGSLRLSCAASGIIIGGYAMGWYRQAPGKERELVADITWSGGSTTYADSVKGRFTISRDNAKNTVYLQMNSLKPEDTAVYYCAAEDYYIYREPYDYWGQGTQVTVSS , I see its polyreactivity (PSR sort gate) listed as low polyreactivity
